Assay: yeast display, Sf9 membrane polyspecificity reagent, FACS + sequencing; frameworks hold sequencing errors
measurement-label: polyreactivity (PSR sort gate)

Take a look at these entries with their results.
[
  {
    "entry-sequence": "QVQLVESGGGLVQAGGSLRLSCAASGRIFWWYTMGWSRQAPGKERELVAAISGSGGSTYYADSVKGRFTISRDNAKNTVYLQMNSLKPEDTAVYYCAAYHRRRATPIHSGEYGYWGQGTQVTVSS",
    "polyreactivity (PSR sort gate)": "high polyreactivity"
  },
  {
    "entry-sequence": "QVQLQESGGGLVHAGGSLRLSCAASGTISFINMMGWYRQAPGRERELVASINFGANTNYADSVKGRFTISRDNAKNTVYLQMNSLKPEDTAVYYCAVYDFDAYTLYYWGQGTLVTVSS",
    "polyreactivity (PSR sort gate)": "high polyreactivity"
  },
  {
    "entry-sequence": "QVQLVESGGGLVQAGGSLRLSCAASGSIFYRNAMGWYRQAPGKERELVAAISSGTSTYYADSVKGRFTISRDNAKNTVYLQMNSLKPEDTAVYYCAKQYAFVPWWSRYHGELDYWGQGTQVTVSS",
    "polyreactivity (PSR sort gate)": "low polyreactivity"
  },
  {
    "entry-sequence": "QVQLVESGGGLVQAGGSLRLSCAASGGTFGSYARGWYRQAPGNEREFVAAIRRGTSTYYADSVQGRFTISRDNAKNTVYLQMNRLKPEDTEVYYCAATPQAHSERYYYQRKYDYWGQGTQVTVSS",
    "polyreactivity (PSR sort gate)": "low polyreactivity"
  },
  {
    "entry-sequence": "QVQLVESGGGLVQAGGSLRLSCAASGRIFGSYVMGWYRQAPGKERELVAAISRGGSTYYADSVKGRFTISRDNAKNTVYLQLNSLTPEDTAVYYCAAYSIYGTSYLYTQAFYYWGQGTQVTVSS",
    "polyreactivity (PSR sort gate)": "high polyreactivity"
  }
]

Q: Recorded polyreactivity (PSR sort gate) of QVQLVESGGVLVQAGGSLRLSCAASGRSFDENSMGWYRQAPGKERELVAAITGGDSTNYADSVKGRFTISRDNAKNTVYLQMNSLKPEDTAVYYCAKDQERVTKGRFYLLEYYWGQGTQVTVSS , please.
A: low polyreactivity

Q: Recorded polyreactivity (PSR sort gate) of QVQLVESGGGLVQAGGSLRLSCAASGFTFKYYAMGWYRQAPGKERELVAAISSGVSTNYADSVKGRFTISRDNAKNTVYLQMNSLKPEDTAVYYCNAEVFWWDQWYDYWGQGTQVTVSS , please.
A: high polyreactivity

----------
Assay: yeast display, Sf9 membrane polyspecificity reagent, FACS + sequencing; frameworks hold sequencing errors

[
  {
    "entry-sequence": "QGQLVESGGGLVQGGGSLRFSCAASGITFQRYALGGYRQAPGKDRALVAAIRRSGTSTYYADSVKGRFPITRHNAKNPVHLQMNSLKPEDTAVKYCAAGSYPTEGSKYGYWGQGTQVTGSS",
    "polyreactivity (PSR sort gate)": "high polyreactivity"
  },
  {
    "entry-sequence": "QVQLVESGGGLFQAGGSLRLSCAASGNTFRRNTMGWYRQAPPKERELVATISWRGGKTFYADSVKGRFTISRDNAKNTVYLQMNSLKPEDTAVYYCAADTRTQTYIYGYWGQGTQVTVSS",
    "polyreactivity (PSR sort gate)": "high polyreactivity"
  }
]

----------
Assay: yeast display, Sf9 membrane polyspecificity reagent, FACS + sequencing; frameworks hold sequencing errors
measurement-label: polyreactivity (PSR sort gate)

[
  {
    "entry-sequence": "QVQLVESGGGLVQAGGSLRLSCAASGRIFGTYAMGWYRQAPGKERELVARITRIGTRTYYADSVKGRFTISRDNAKNTVYLQMNSLKPEDTAVDYCAAGHYSYWVNTVKRYNTGYDYWGQGTQVTVSS",
    "polyreactivity (PSR sort gate)": "high polyreactivity"
  },
  {
    "entry-sequence": "QVQHVESGGGLGQAGGSLRLSCAASGIIFPRYKAWYRPAPGKDRELVAAIRWSSDDTNYADSVKGRFTISRDNAKNTVYLQMNSLKPEDTAVYYCAADSYYDRTIQFEFSARTYDYWVQGTQVTVSS",
    "polyreactivity (PSR sort gate)": "low polyreactivity"
  },
  {
    "entry-sequence": "QGQLVESGGGLVQAGGSLRLSCAASGFTFDYYAMGWYRQATGKEREFVAAISSRGDDTYYADSVKGRFTISRDNAKNTVYLQMNSLKPEDTAVYYCAALDPWKPEYDYWGQGTQVTLSS",
    "polyreactivity (PSR sort gate)": "high polyreactivity"
  },
  {
    "entry-sequence": "QVQLVESGGGLVQAGGSLRLSCAASGSTFYVYAMGWYRQAPGKERELVAAITVRGGSTYYADSVKGRFTISRDNAKYTVYLQMNSLKPEDTAVYYCAVDVSKPYYEMDYWGQGTQVTVSS",
    "polyreactivity (PSR sort gate)": "high polyreactivity"
  },
  {
    "entry-sequence": "QVQLVESGGGLVQAGGSLRLSCPASGSIFGSYAMGWYRQAPGKERELVASITRVDSTNYADSVKGRFTISRDNAKNTVYLQMNRLKPEDTAVYYCNAGKTIDYRDGVGYDHWGQGTQVTVSS",
    "polyreactivity (PSR sort gate)": "low polyreactivity"
  },
  {
    "entry-sequence": "QVQLVESGGGLVQAGGSLRLSCAASGYIFHYNAMGWYRQAPGKEREFVAAISQGGGSTYYADSVKGRFTISRDNAKNTVYLQMNSLKPEDTAVYYCAADYRSGYREMDYWGQGTQVTVSS",
    "polyreactivity (PSR sort gate)": "low polyreactivity"
  },
  {
    "entry-sequence": "QVQLVESGGGLVQAGGSLRLSCAASGNIFETYAMGWYRQAPGKERELVAVITRGGSTYYADSVKGRFTISRDNAKNTVYLQMNSLKPEDTAVYYCARDAFDDWYGLTDDKSDYWGQGTQVTVSS",
    "polyreactivity (PSR sort gate)": "low polyreactivity"
  },
  {
    "entry-sequence": "QVQLVESGGGLVQAGGSLRLSCAASGSTFRYNAMGWYRQAPGKERELVAAITSGGTTNYADSVKGRFTISRDNAKNTVYLQMNSLKPEDTAVYYCAKKRPGFLRYGSIGEFQYDYWGQGTQVTVSS",
    "polyreactivity (PSR sort gate)": "low polyreactivity"
  },
  {
    "entry-sequence": "QVQLVESGGGLVQAGGSLRLSCAASGRIFKRYAMGWYRQAPGKERELVAAITRSGTRTYYADSVKGRFTISRDNAKNTVYLQMNSLKPEDTAVYYCAAALGWYSAFGYWGQGTLVTVSS",
    "polyreactivity (PSR sort gate)": "high polyreactivity"
  },
  {
    "entry-sequence": "QVQLVESGGGLVQAGGSLRLSCAASGFIFYYYAMGWYRQAPGKERELVASISSSGGRTYYADSVKGRFTISRDNAKNTVYLQMNSLKPEDTAVYYCAARGPYGYDLLYYWGQGTQVTVSS",
    "polyreactivity (PSR sort gate)": "high polyreactivity"
  }
]

Q: Recorded polyreactivity (PSR sort gate) of QVQLVESGGGLVQAGGSLRLSCAASGSIFRYYAMGWYRQAPGKERELVASISSGAGSTYYADSVKGRFTISRDNAKNTVYLQMNSLKPEDTAVYYCAARPGYSAFYYWGQGTQVTVSS , please.
A: high polyreactivity

----------
Experiment: yeast display, Sf9 membrane polyspecificity reagent, FACS + sequencing; frameworks hold sequencing errors
measurement-label: polyreactivity (PSR sort gate)

[
  {
    "entry-sequence": "QVQLVESGGCLVQAGGSLRLSCAASGFTFVRNAMGWYRQAPGKDRELVAAISGSGGRTYYADSVKGRFTISRDNAKNTVYLQMNSVKPEDTAVYYCNTASAYEYEYWGQGSQVTVSS",
    "measurement-label": "polyreactivity (PSR sort gate)",
    "observed": "high polyreactivity"
  },
  {
    "entry-sequence": "QVQLVESGGGLVQAGGSLRLSCAASGFTFKFYAMGWYRQAPGKERELVAAISWSGGSTYYADSVKGRFTISRDNAKNTVYLQMNSLKPEDTAVYYFAKRGGRQTYYYWGLGTQVTVSS",
    "measurement-label": "polyreactivity (PSR sort gate)",
    "observed": "high polyreactivity"
  }
]

----------
Experiment: yeast display, Sf9 membrane polyspecificity reagent, FACS + sequencing; frameworks hold sequencing errors
measurement-label: polyreactivity (PSR sort gate)

[
  {
    "entry-sequence": "QVQLVESGGGLVQAGGSLRLSCAASGRIFSRNAMGWYRKAPGKERELVATISAGGGRTSYADSVKGRFTISRDNAKNTVYLQMNSLKPEDTADYYCAARGQVGYYWGQGTQVTVSS",
    "observed": "high polyreactivity"
  },
  {
    "entry-sequence": "QVQLVESGGGLVQAGGSLRLSCAASGRTFETNAMGWYRQAPGKERELVAAISRSGGSTRYADSVKGRFTISRDNAKNTVYLQMNSLKPEDTAVYYCAAETWYRGYKFDYWGQGTQVTVSS",
    "observed": "high polyreactivity"
  }
]
